# ASSAYED_SYSTEM: TatCel7A (Trichoderma atroviride, UniProt G9NTY1)
# Construct: gene TRIATDRAFT_88458
# Sequence (G9NTY1 entry or part of it): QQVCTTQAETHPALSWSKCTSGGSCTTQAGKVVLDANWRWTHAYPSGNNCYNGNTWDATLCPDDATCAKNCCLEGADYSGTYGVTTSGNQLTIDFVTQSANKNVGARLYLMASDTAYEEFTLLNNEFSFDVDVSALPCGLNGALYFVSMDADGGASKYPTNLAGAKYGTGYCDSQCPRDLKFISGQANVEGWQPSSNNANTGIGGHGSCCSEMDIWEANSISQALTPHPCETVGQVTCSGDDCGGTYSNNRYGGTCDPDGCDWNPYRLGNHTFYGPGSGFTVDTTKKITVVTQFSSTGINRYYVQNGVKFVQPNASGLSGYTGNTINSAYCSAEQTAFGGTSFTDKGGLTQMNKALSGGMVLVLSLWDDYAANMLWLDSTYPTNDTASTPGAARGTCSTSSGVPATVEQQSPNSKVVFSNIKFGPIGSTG
# ASSAY_NAME: competitive (product) inhibition of pNP-Lac hydrolysis, pH […] °C
# Assay type: biochemical
MEASURED_METRIC: Ki (µM)
Give just the numeric value; µM need not be written.

Quick note, Ki for OC[C@H]1O[C@@H](O[C@H]2[C@H](O)[C@@H](O)C(O)O[C@@H]2CO)[C@H](O)[C@@H](O)[C@@H]1O (stereo partly shown) landed at 72

----------
# ASSAYED_SYSTEM: ThaCel7A (Trichoderma harzianum)
# Sequence (Q9P8P3 18-443): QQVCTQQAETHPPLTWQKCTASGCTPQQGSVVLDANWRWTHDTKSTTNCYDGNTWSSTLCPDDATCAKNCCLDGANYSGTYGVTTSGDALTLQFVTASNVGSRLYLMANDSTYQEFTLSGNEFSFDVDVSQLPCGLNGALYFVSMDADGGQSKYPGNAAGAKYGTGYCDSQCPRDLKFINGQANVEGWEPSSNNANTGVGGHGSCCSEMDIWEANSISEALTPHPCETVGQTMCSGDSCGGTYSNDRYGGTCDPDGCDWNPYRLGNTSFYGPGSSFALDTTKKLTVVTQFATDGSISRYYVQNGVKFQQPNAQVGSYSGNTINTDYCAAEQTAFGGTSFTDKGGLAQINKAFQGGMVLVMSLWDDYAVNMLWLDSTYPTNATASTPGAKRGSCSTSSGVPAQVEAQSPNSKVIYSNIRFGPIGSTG
MEASURED_METRIC: Ki (µM)
Provide only the numeric value, understood in µM.

What the record says about OC[C@H]1O[C@@H](O[C@H]2[C@H](O)[C@@H](O)C(O)O[C@@H]2CO)[C@H](O)[C@@H](O)[C@@H]1O (stereo partly shown) : Ki is 49

----------
# ASSAYED_SYSTEM: TreCel7A (Trichoderma reesei)
# Sequence (P62694 18-451): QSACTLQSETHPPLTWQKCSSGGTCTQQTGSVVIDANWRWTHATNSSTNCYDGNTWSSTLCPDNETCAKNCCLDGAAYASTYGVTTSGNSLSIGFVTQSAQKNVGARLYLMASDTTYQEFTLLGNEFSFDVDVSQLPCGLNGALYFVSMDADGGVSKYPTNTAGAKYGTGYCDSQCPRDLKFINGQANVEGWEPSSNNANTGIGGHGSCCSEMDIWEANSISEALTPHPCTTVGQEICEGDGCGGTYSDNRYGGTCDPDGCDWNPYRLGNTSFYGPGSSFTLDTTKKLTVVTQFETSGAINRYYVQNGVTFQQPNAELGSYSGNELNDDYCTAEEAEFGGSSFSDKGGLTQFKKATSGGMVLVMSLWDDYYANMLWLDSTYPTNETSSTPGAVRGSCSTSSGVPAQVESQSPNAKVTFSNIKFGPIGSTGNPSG
MEASURED_METRIC: Ki (µM)
Give the number; µM is assumed, so skip it.

The reported value for OC[C@H]1O[C@@H](O[C@H]2[C@H](O)[C@@H](O)C(O)O[C@@H]2CO)[C@H](O)[C@@H](O)[C@@H]1O (stereo partly shown) in terms of Ki is 24

The reported numbers originate from paper PMC5766984.
